These measurements were taken from patent US20230134571A1.

# target.or.test.system: HIV Env of isolate CNE21 (clade BC) (HIV)
# procedure.text: cell-based or functional assay
property.measured: IC50 (µg/ml) with constrains (µg/mL)
Entry rule: numbers only, all in µg/mL.

Ask | Entry ePGDM13 (antibody, V domains shown) VH: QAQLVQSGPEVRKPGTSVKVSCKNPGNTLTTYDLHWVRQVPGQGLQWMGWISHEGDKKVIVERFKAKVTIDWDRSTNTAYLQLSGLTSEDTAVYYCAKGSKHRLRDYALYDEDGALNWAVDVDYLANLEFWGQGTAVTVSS VL: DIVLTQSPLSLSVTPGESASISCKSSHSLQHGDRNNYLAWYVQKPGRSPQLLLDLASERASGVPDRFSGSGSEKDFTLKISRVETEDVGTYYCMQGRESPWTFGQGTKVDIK needs its IC50 (µg/ml) with constrains filled in; supply it.
Reply | 0.001

Ask | Entry ePGDM5 (antibody, V domains shown) VH: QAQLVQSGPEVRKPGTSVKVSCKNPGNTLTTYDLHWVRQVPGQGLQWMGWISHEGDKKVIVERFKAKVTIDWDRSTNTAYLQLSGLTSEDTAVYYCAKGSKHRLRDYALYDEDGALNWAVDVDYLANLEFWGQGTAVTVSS VL: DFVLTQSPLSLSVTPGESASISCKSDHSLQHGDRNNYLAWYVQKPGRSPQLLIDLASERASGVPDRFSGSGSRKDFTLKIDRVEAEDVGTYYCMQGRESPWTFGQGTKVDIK needs its IC50 (µg/ml) with constrains filled in; supply it.
Reply | 0.002

Ask | Entry PGDM1400 (antibody, V domains shown) VH: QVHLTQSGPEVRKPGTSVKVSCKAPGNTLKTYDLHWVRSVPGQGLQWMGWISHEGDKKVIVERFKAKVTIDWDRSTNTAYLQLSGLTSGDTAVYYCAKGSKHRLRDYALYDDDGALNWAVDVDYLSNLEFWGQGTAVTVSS VL: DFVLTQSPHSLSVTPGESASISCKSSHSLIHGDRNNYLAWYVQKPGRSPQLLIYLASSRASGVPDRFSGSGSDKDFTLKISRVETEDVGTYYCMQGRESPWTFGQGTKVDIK needs its IC50 (µg/ml) with constrains filled in; supply it.
Reply | 0.003

Ask | Entry ePGDM9 (antibody, V domains shown) VH: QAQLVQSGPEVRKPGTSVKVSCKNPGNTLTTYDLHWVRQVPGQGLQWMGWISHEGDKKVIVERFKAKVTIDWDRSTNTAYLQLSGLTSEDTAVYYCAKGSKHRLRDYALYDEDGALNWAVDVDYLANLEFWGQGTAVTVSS VL: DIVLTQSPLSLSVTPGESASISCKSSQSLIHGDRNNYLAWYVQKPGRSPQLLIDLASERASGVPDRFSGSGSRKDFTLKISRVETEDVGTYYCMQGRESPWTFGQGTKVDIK needs its IC50 (µg/ml) with constrains filled in; supply it.
Reply | 0.002
